The following compounds are listed with their measured EC50 values.
MEASURED ON: Recombinant human TLR7 (Homo sapiens)
Construct: TLR7 in vector pUNO, blasticidin selection
Sequence (Q9NYK1 27-1049): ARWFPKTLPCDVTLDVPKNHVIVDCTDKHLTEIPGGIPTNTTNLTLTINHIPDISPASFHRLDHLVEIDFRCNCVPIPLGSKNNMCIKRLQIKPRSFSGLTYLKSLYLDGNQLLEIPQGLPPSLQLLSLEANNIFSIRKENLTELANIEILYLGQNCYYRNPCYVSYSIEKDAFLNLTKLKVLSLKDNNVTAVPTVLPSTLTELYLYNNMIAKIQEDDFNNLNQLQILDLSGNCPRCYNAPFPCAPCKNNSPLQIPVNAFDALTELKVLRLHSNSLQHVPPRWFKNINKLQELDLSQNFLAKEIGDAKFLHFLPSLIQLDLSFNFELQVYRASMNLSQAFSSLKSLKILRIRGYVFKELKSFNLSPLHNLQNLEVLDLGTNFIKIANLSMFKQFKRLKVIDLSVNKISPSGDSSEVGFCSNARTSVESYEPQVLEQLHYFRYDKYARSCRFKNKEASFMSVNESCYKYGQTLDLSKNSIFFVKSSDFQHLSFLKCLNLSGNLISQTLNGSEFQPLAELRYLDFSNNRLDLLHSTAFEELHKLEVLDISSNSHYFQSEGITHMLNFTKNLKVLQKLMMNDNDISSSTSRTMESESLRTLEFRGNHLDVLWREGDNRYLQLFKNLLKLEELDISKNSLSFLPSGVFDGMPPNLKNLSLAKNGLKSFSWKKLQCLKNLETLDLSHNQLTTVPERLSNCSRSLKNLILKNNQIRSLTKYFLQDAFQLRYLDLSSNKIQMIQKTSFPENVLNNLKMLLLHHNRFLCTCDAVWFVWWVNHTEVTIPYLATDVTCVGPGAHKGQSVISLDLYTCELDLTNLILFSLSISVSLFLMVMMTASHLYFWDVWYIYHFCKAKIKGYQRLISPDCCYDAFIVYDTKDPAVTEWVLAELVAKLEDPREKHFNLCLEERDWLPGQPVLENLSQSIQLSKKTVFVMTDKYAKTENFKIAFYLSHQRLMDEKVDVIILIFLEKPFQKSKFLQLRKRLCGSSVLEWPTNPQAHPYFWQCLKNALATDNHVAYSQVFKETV
EXPERIMENT: Human TLR7 Assay (SEAP reporter);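 note: SEAP driven by an NFkB-responsive composite promoter, pEC50 read at half of each compound's own maximal SEAP induction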
CONDITION DETAILS: HEK293 cell line stably expressing human TLR7 and pNiFty2-SEAP reporter; SEAP induction after overnight incubation at 37° C., 0.1% (v/v) DMSO
REPORTED METRIC: EC50 (nM)

>>> observed_result("CCCC[C@@H](CCO)Nc1nc(N)nc(C)c1Cc1ccc(CC(=O)OC)cc1OC [Example 31]")
6.31
>>> observed_result("CCCCCNc1nc(N)nc(C)c1CCCN(Cc1ccc(CC(=O)OC)cc1)C(=O)CN(C)C [Example 4]")
398
>>> observed_result("CCCCNc1nc(N)nc(C)c1Cc1cc(CC(=O)OCCCCN(C)C)ccc1OC [Example 97]")
31.6
>>> observed_result("CCCCNc1nc(N)nc(C)c1Cc1ccc(CC(=O)OC)cc1 [Example 41]")
1000
>>> observed_result("CCCCCNc1nc(N)nc(C)c1CCCN(Cc1cccc(CC(=O)OC)c1)C(=O)CN1CCC[C@H]1C(=O)OC [Example 5]")
631
>>> observed_result("CCCCNc1nc(N)nc(C)c1Cc1ccc(CC(=O)OCCCCN(C)C)cc1O [Example 102]")
100
>>> observed_result("CCCC[C@@H](CO)Nc1nc(N)nc(C)c1Cc1ccc(CC(=O)OC)cc1OC [Example 32]")
50.1
>>> observed_result("CCCC[C@@H](CCO)Nc1nc(N)nc(C)c1Cc1ccc(CC(=O)OC)cc1F [Example 33]")
50.1
>>> observed_result("CCCCCNc1nc(N)nc(C)c1Cc1ccc(CC(=O)OCCCN(C)C)cc1 [Example 37]")
126
>>> observed_result("CCCCCNc1nc(N)nc(C)c1Cc1ccc(CC(=O)OCCN2CCN(C)CC2)cc1 [Example 38]")
126
>>> observed_result("CCC[C@@H](CCO)Nc1nc(N)nc(C)c1Cc1ccc(CC(=O)OCCCCN(C)C)cc1F [Example 86]")
200
>>> observed_result("CCC[C@@H](CO)Nc1nc(N)nc(C)c1Cc1ccc(CC(=O)OCCCCN(C)C)cc1 [Example 70]")
1260
>>> observed_result("CCCCCNc1nc(N)nc(C)c1CCCN(Cc1cccc(CC(=O)OC)c1)C(=O)CN1CCN(CCCN(C)C)CC1 [Example 9]")
3980
>>> observed_result("CCCCCNc1nc(N)nc(C)c1Cc1ccc(CC(=O)OCCN2CCOCC2)cc1 [Example 35]")
251
>>> observed_result("CCCCCNc1nc(N)nc(C)c1CCCN(Cc1ccc(CC(=O)OC)cc1)C(=O)CN1CCC(c2ccccc2)CC1 [Example 28]")
1260
>>> observed_result("CCCCCNc1nc(N)nc(C)c1Cc1ccc(CC(=O)OCC2CCN(CCOC)CC2)cc1 [Example 62]")
200
>>> observed_result("CCC[C@@H](CCO)Nc1nc(N)nc(C)c1Cc1ccc(CC(=O)OC)cc1F [Example 45]")
50.1
